# target-system: UniProt:O95977
# Sequence (O95977 1-384): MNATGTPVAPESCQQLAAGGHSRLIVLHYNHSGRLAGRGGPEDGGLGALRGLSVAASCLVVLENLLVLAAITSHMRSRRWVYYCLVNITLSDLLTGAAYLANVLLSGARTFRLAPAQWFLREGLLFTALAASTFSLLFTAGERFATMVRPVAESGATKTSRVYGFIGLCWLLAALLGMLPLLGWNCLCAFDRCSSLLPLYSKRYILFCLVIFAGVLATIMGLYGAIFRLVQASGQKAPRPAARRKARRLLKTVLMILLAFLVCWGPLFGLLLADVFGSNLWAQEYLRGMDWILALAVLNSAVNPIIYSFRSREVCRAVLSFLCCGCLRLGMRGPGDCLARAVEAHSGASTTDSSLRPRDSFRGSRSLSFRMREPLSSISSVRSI
pIC50: −log10 of the molar value. Where a name gives a salt, the structure may show the parent alone.
experimental-readout: pIC50

Lookup: Give recorded pIC50 with UniProt:O95977 for the following compound: `CC(C)Cc1ccc(-c2nc(-c3ccc([C@@H](C)N[C@H]4C[C@@H](C(=O)O)C4)cc3)no2)cc1`
Found: 7.46

1: CCCCCCCCCCCCC/C=C/[C@@H](O)[C@@H](N)COP(=O)(O)O [Example S1P, sphingosine-1-phosphate, reference compound]
2: CC(C)Cc1ccc(-c2nc(-c3ccc([C@H](C)N[C@H]4C[C@@H](C(=O)O)C4)cc3)no2)cc1 [hydrochloride salt]
Lookup: Among 1 and 2 , whose measured pIC50 is the smaller figure? Could you answer with the label of the item you picked?
Found: 2
